# Test system: SK-MEL-5 melanoma
# protocol-summary: NCI tumour cell line growth inhibition, 48 h
recorded-metric: GI50

COc1cc(-c2nn(-c3ccc(NC(=O)Nc4ccc(Cl)c(C(F)(F)F)c4)cc3)cc2-c2ccncc2)ccc1Cl
1560 nM

Batch request: GI50 per item, same order as input.
1. C[C@@]1([C@H](OC(=O)c2cccc3ccccc23)C(N)=O)CO1
2. O=c1ncc(I)c[nH]1
3. C[C@]12CC/C(=N\O)C[C@@H]1CC[C@@H]1[C@@H]2CC[C@]2(C)/C(=N/O)CC[C@@H]12
4. O=C1C2=C(C(=O)c3c(O)ccc(O)c31)N(c1cccnc1)Cc1ccccc1O2

a:
["2010 nM", "> 100000 nM", "23600 nM", "1330 nM"]
